Experiment: Dose-escalation study of Compound 1 pharmacokinetics in subjects with advanced malignancies (tablets of Formulations 1 and/or 3, fasted; food effect cohort)
Type: in vivo, human
Details: human, plasma, oral, 700 mg, 700 mg BID, steady state, geometric mean; read-out: AUC0-τ
property-label: AUC (µM·h)

* NS(=O)(=O)NCCNc1nonc1C(=NO)Nc1ccc(F)c(Br)c1 [Compound 1] | 33.9

====

Test: Pharmacokinetics of Compound 1 in combination with MK-3475 in subjects with various cancers
Assay type: in vivo, human
Conditions: Cohort 6, 300 mg BID, steady state C1D8, geometric mean
property-label: Cmax (nM)

• NS(=O)(=O)NCCNc1nonc1C(=NO)Nc1ccc(F)c(Br)c1 = 2500

====

Assay: Pharmacokinetics of Compound 1 in combination with MK-3475 in subjects with various cancers
Type: in vivo, human
Conditions: human, plasma, oral, 100 mg BID, Diagnosis SCCHN, steady state C1D8, mean ± SD; read-out: AUC0-12 h (converted)
property-label: AUC(0-t) (µM·h)

• NS(=O)(=O)NCCNc1nonc1C(=NO)Nc1ccc(F)c(Br)c1 [Compound 1] = 4.29

====

Assay: Dose-escalation study of Compound 1 pharmacokinetics in subjects with advanced malignancies (tablets of Formulations 1 and/or 3, fasted; food effect cohort)
Assay type: in vivo, human
Conditions: human, plasma, oral, 50 mg, 50 mg QD, steady state, geometric mean; read-out: AUC0-t
property-label: AUC(0-t) (µM·h)

- NS(=O)(=O)NCCNc1nonc1C(=NO)Nc1ccc(F)c(Br)c1 [Compound 1]: 1.37

====

Assay: Pharmacokinetics of Compound 1 in combination with MK-3475 in subjects with various cancers
Format: in vivo, human
Settings: human, plasma, oral, 100 mg, Diagnosis DLBCL, first dose, geometric mean; read-out: AUC0-t
property-label: AUC(0-t) (µM·h)

* NS(=O)(=O)NCCNc1nonc1C(=NO)Nc1ccc(F)c(Br)c1 [Compound 1] | 1.9

====

Assay: Dose-escalation study of Compound 1 pharmacokinetics in subjects with advanced malignancies (tablets of Formulations 1 and/or 3, fasted; food effect cohort)
Format: in vivo, human
Conditions: human, plasma, oral, from accumulation ratio based on AUC; read-out: effective t1/2 (converted)
property-label: half-life

- NS(=O)(=O)NCCNc1nonc1C(=NO)Nc1ccc(F)c(Br)c1: ~6 h

====

Assay: Pharmacokinetics of Compound 1 in combination with MK-3475 in subjects with various cancers
Format: in vivo, human
Details: human, plasma, oral, 100 mg, Diagnosis SCCHN, first dose, mean ± SD
property-label: Cmax (nM)

• NS(=O)(=O)NCCNc1nonc1C(=NO)Nc1ccc(F)c(Br)c1 = 769

====

Test: Dose-escalation study of Compound 1 pharmacokinetics in subjects with advanced malignancies (tablets of Formulations 1 and/or 3, fasted; food effect cohort)
Type: in vivo, human
Conditions: human, plasma, oral, 50 mg, 50 mg BID, steady state, mean ± SD; read-out: AUC0-t
property-label: AUC(0-t) (µM·h)

* NS(=O)(=O)NCCNc1nonc1C(=NO)Nc1ccc(F)c(Br)c1 [Compound 1] | 2.74

====

Assay: Pharmacokinetics of Compound 1 in combination with MK-3475 in subjects with various cancers
Format: in vivo, human
Settings: human, plasma, oral, 100 mg, Cohort 5, 100 mg, first dose, geometric mean
property-label: Cmax (nM)

• NS(=O)(=O)NCCNc1nonc1C(=NO)Nc1ccc(F)c(Br)c1 [Compound 1] = 787
